Origin of the recorded values: ChEMBL document CHEMBL1828548

Test system: A549
Assay Info: Cytotoxicity against human A549 cells assessed as cell viability at 1 uM after 3 days by colorimetric MTT assay
Type: functional
Measurement Parameters: A549, 72 h, read-out: Activity
Note to self: viability at 1 µM under 90% means Yes, ties and anything higher get No.

Compound Structure: O=C1COc2ccc(-c3nn(-c4ccc(F)cc4)cc3-c3ccccc3)cc2N1
Label: Yes

Q. In plain terms, does `O=C1COc2ccc(-c3[nH]c(-c4c[nH]c5ncccc45)nc3-c3ccccc3)cc2N1` come in under 90% for viability at 1 µM?
A. No

Q. # iterate: `O=C1COc2ccc(-c3[nH]c(-c4ccc(C(F)(F)F)cc4)nc3-c3ccccc3)cc2N1`
A. No

Q. // repeat for `O=C1COc2ccc(-c3nn(-c4ccc(Cl)cc4)cc3-c3ccccc3)cc2N1` and report
A. Yes

----------
System: A549
Assay Info: Cytotoxicity against human A549 cells assessed as cell viability at 20 uM after 3 days by colorimetric MTT assay
Type: functional
Measurement Parameters: A549, 72 h, read-out: Activity
Metric Name: viability at 20 µM (%)
Field: numeric (%). Do not append units.

Some solved cases for reference:
Compound Structure: O=C1COc2ccc(-c3[nH]c(-c4c[nH]c5ncccc45)nc3-c3ccccc3)cc2N1
Target System: A549
viability at 20 µM (%): 86.8

Compound Structure: O=C1COc2ccc(-c3[nH]c(-c4ccc(C(F)(F)F)cc4)nc3-c3ccccc3)cc2N1
Target System: A549
viability at 20 µM (%): 21.7

Q. Requested read-out viability at 20 µM, target or system A549, entry `COc1ccc(-n2cc(-c3ccccc3)c(-c3ccc4c(c3)NC(=O)CO4)n2)cc1`
A. 42.6

Q. Another compound to check: `COc1ccc(-c2nc(-c3ccccc3)c(-c3ccc4c(c3)NC(=O)CO4)[nH]2)cc1`
A. 38.1

----------
Tested on: DLD-1
Assay Info: Cytotoxicity against human DLD1 cells assessed as cell viability at 20 uM after 3 days by colorimetric MTT assay
Assay type: functional
Measurement Parameters: DLD-1, 72 h, read-out: Activity
Metric Name: viability at 20 µM
Phrase the answer as number then unit, nothing more needed.

Q. # returns recorded viability at 20 µM (system: DLD-1) for `O=C1COc2ccc(-c3[nH]c(-c4c[nH]c5ncccc45)nc3-c3ccccc3)cc2N1`
A. 53.5%

Q. Also need `COc1ccc(-c2nc(-c3ccccc3)c(-c3ccc4c(c3)NC(=O)CO4)[nH]2)cc1` , thanks.
A. 19.1%

Q. // next record `O=C1COc2ccc(-c3[nH]c(-c4ccc(Cl)cc4Cl)nc3-c3ccccc3)cc2N1`
A. 61.9%

----------
System: DLD-1
Assay Info: Cytotoxicity against human DLD1 cells assessed as cell viability at 20 uM after 3 days by colorimetric MTT assay
Format: functional
Measurement Parameters: DLD-1, 72 h, read-out: Activity
Cut-off 50% on viability at 20 µM: below means criterion met, at or above means criterion not met.

Worked set:
Compound Structure: O=C1COc2ccc(-c3[nH]c(-c4ccc(C(F)(F)F)cc4)nc3-c3ccccc3)cc2N1
Label: criterion met

Compound Structure: O=C1COc2ccc(-c3nn(-c4cc(Cl)cc(Cl)c4)cc3-c3ccccc3)cc2N1
Label: criterion not met

Compound Structure: O=C1COc2ccc(-c3nn(-c4ccc(Br)cc4)cc3-c3ccccc3)cc2N1
Label: criterion not met

Compound Structure: O=C1COc2ccc(-c3nn(-c4ccccc4)cc3-c3ccccc3)cc2N1
Label: criterion met

Compound Structure: O=C1COc2ccc(-c3nn(-c4ccc(F)cc4)cc3-c3ccccc3)cc2N1
Label: criterion met

Compound Structure: O=C1COc2ccc(-c3nn(-c4ccc(Cl)cc4)cc3-c3ccccc3)cc2N1
Label: criterion met

Compound Structure: Cc1ccccc1-n1cc(-c2ccccc2)c(-c2ccc3c(c2)NC(=O)CO3)n1
Label: criterion not met

Compound Structure: O=C1COc2ccc(-c3[nH]c(-c4ccccc4)nc3-c3ccccc3)cc2N1
Label: criterion met

Q. Determine whether this molecule shows viability at 20 µM lower than 50% (ties excluded): `O=C1COc2ccc(-c3[nH]c(-c4ccc(F)cc4)nc3-c3ccccc3)cc2N1`
A. criterion met

Q. Let us now turn to `COc1ccc(-n2cc(-c3ccccc3)c(-c3ccc4c(c3)NC(=O)CO4)n2)cc1`
A. criterion met

----------
System: A549
Assay Info: Cytotoxicity against human A549 cells assessed as cell viability at 1 uM after 3 days by colorimetric MTT assay
Assay type: functional
Measurement Parameters: A549, 72 h, read-out: Activity
Decide using viability at 1 µM alone. Strictly below 90%: fulfilled. Equal to or above 90%: not fulfilled.

Recorded results for 3 compounds are shown here.
Compound Structure: O=C1COc2ccc(-c3nn(-c4ccc(Br)cc4)cc3-c3ccccc3)cc2N1
Label: fulfilled
//
Compound Structure: COc1cc2ncnc(Nc3ccc(F)c(Cl)c3)c2cc1OCCCN1CCOCC1
Label: fulfilled
//
Compound Structure: O=C1COc2ccc(-c3[nH]c(-c4ccc(Cl)cc4Cl)nc3-c3ccccc3)cc2N1
Label: not fulfilled

Let's switch to this compound now.
Q. Find out if reported viability at 1 µM for `C#Cc1cccc(Nc2ncnc3cc(OCCOC)c(OCCOC)cc23)c1` is less than 90%
A. fulfilled

----------
Reported viability at 20 µM values follow for various compounds
Tested on: A549
Assay Info: Cytotoxicity against human A549 cells assessed as cell viability at 20 uM after 3 days by colorimetric MTT assay
Format: functional
Measurement Parameters: A549, 72 h, read-out: Activity
Lab book: enter the figure in %, no units written.

Compound Structure: O=C1COc2ccc(-c3nn(-c4ccc(Cl)cc4)cc3-c3ccccc3)cc2N1
Metric Name: viability at 20 µM
Result Value: 52.4
//
Compound Structure: O=C1COc2ccc(-c3[nH]c(-c4ccccc4)nc3-c3ccccc3)cc2N1
Metric Name: viability at 20 µM
Result Value: 58.5
//
Compound Structure: O=C1COc2ccc(-c3[nH]c(-c4ccc(F)cc4)nc3-c3ccccc3)cc2N1
Metric Name: viability at 20 µM
Result Value: 37.5
//
Compound Structure: Cc1ccccc1-n1cc(-c2ccccc2)c(-c2ccc3c(c2)NC(=O)CO3)n1
Metric Name: viability at 20 µM
Result Value: 85.3
//
Compound Structure: O=C1COc2ccc(-c3[nH]c(-c4ccc(Cl)cc4Cl)nc3-c3ccccc3)cc2N1
Metric Name: viability at 20 µM
Result Value: 68.3

Q. Request the reported viability at 20 µM associated with `O=C1COc2ccc(-c3nn(-c4ccccc4)cc3-c3ccccc3)cc2N1`
A. 59.7

Q. How about `O=C1COc2ccc(-c3nn(-c4ccc(Br)cc4)cc3-c3ccccc3)cc2N1` ?
A. 58.8

Q. Proceed to `O=C1COc2ccc(-c3nn(-c4cc(Cl)cc(Cl)c4)cc3-c3ccccc3)cc2N1`
A. 70.2

Q. Please give the result for `O=C1COc2ccc(-c3nn(-c4ccc(F)cc4)cc3-c3ccccc3)cc2N1` too.
A. 56.4
